Where do these numbers come from? They come from PubChem BioAssay AID200.

# System: B6C3F1 mice, B16 melanoma ip, median survival T/C
# experimental_details: NCI In Vivo Anticancer Drug Screen. Data for tumor model B16 Melanoma (intraperitoneal) in B6C3F1 mice
# condition_label: endpoint: median survival time; dose: 50.0 mg/kg/injection; schedule: Q01DX009 (ip); vehicle: saline with Tween-80
Inconclusive results and toxic doses are left out. How the source made its calls: active means survival T/C of 150% or more; inactive means T/C below 125% in these data.
# output must be one of T = active, F = inactive

Completed entries (count: 10):
molecule=O=C(N/N=C/c1cccc(O)c1O)N/N=C/c1cccc(O)c1O category=F
molecule=O=[n+]1c2ccccc2n([O-])c2cc(Cl)ccc21 category=F
molecule=Cn1ccc(=Nc2ccc(NC(=O)c3ccc(N=c4ccn(C)c5ccc([N+](=O)[O-])cc45)cc3[N+](=O)[O-])cc2)cc1 category=F
molecule=CC(C)=CCC/C(C)=C\C=N\NS(=O)(=O)c1ccc([N+](=O)[O-])cc1 category=F
molecule="O=C1NC(c2ccccc2)N=C2Oc3ccccc3C=C12 (configuration not stated)" category=F
molecule="[I][Hg][CH2]C1COC([CH2][Hg][I])CO1 (configuration not stated)" category=F
molecule="O=C1NC(O)c2ccccc2O1 (configuration not stated)" category=F
molecule="BrC1c2cccc3cccc(c23)C1Br (configuration not stated)" category=T
molecule=COc1ccc(O)cc1 category=F
molecule="O=C(NC(CO)C(=O)O)OCc1ccccc1 (configuration not stated)" category=F

Request: Test call for this molecule, please: CC(Cc1ccc(O)cc1)NCC(O)c1ccc(O)c(O)c1 (configuration not stated)
Response: F

Request: Test call for this molecule, please: NC(=O)SCC(N)C(=O)O (configuration not stated)
Response: F

Request: Test call for this molecule, please: CN1C(=O)C(=Cc2ccc(O)cc2)C(=O)N(C)C1=O
Response: F

Request: Test call for this molecule, please: Nc1nc(-c2cccc([N+](=O)[O-])c2)c(Br)c(=O)[nH]1
Response: F

Request: Test call for this molecule, please: O/N=C/c1ccccc1O.O/N=C/c1ccccc1O.[Cu]
Response: F

Request: Test call for this molecule, please: O=C(Oc1ccc(-c2ccc(Br)cc2)cc1)c1ccco1
Response: F

Request: Test call for this molecule, please: CC(C#N)(C#N)N=Nc1ccc(Cl)cc1Cl
Response: F
